B1: MGC16075 (parent)
chain: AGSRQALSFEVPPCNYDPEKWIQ

# Variants of: B1
# measurement_protocol: protein stability index of a GFP-peptide fusion (GPS, HEK-293T) (PSI 1-6); higher = more stable;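 also: lentivirally expressed fusions sorted by FACS into six bins by GFP to DsRed ratio, PSI derived from sequencing read proportions per bin multiplied by bin number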
# run_conditions: c terminus: native
assay_metric: protein stability index

| monomer_sequence | assay_metric | recorded_value |
| --- | --- | --- |
| AGSRQCLSFEVPPCNYDPEKWIQ [A6C] | protein stability index | 2.03 |
| AGSRQALSFEVPPCNYDPKKWIQ [E19K] | protein stability index | 3.27 |
| AGSRQALSFEVPPYNYDPEKWIQ [C14Y] | protein stability index | 2.23 |
| AGSRQALNFEVPPCNYDPEKWIQ [S8N] | protein stability index | 1.91 |
| AGSKQALSFEVPPCNYDPEKWIQ [R4K] | protein stability index | 1.72 |
| AGSRQALSFEVPHCNYDPEKWIQ [P13H] | protein stability index | 1.2 |
| AGSRQALSFEVPPCNYDPEKPIQ [W21P] | protein stability index | 5.2 |
| AGSRQALEFEVPPCNYDPEKWIQ [S8E] | protein stability index | 3.24 |
| AGSRQALSFEVPPCNYDPRKWIQ [E19R] | protein stability index | 2.14 |
| AGSRQALSFEVPPCGYDPEKWIQ [N15G] | protein stability index | 2.03 |
| AGSRQALSFEVPPCNRDPEKWIQ [Y16R] | protein stability index | 1.24 |
| AGSRQALCFEVPPCNYDPEKWIQ [S8C] | protein stability index | 2.6 |
| AGSRQNLSFEVPPCNYDPEKWIQ [A6N] | protein stability index | 2.16 |
| AGSRQAHSFEVPPCNYDPEKWIQ [L7H] | protein stability index | 2.33 |
| AGSRQALSFEVPPCNYDPEKWMQ [I22M] | protein stability index | 4.14 |
| AGSQQALSFEVPPCNYDPEKWIQ [R4Q] | protein stability index | 1.87 |
| AGSRQALSFECPPCNYDPEKWIQ [V11C] | protein stability index | 2.02 |
| AGSRQALSFEVPPCNYDPEMWIQ [K20M] | protein stability index | 2.69 |
| AGSRQALSFEVNPCNYDPEKWIQ [P12N] | protein stability index | 1.67 |
| AGSRQALSFEVPPHNYDPEKWIQ [C14H] | protein stability index | 2.1 |
| AGSRQALDFEVPPCNYDPEKWIQ [S8D] | protein stability index | 2.32 |
| AGSRQALSFEIPPCNYDPEKWIQ [V11I] | protein stability index | 2.6 |
| AGVRQALSFEVPPCNYDPEKWIQ [S3V] | protein stability index | 1.27 |
| AGSGQALSFEVPPCNYDPEKWIQ [R4G] | protein stability index | 1.39 |
| AGSRQALSFEVPPCNADPEKWIQ [Y16A] | protein stability index | 1.54 |
| AGSRQALSFEVPPCNYDPESWIQ [K20S] | protein stability index | 3.77 |
| AGSRQALSFEVPPCNYDPEKWIV [Q23V] | protein stability index | 4.81 |
| RGSRQALSFEVPPCNYDPEKWIQ [A1R] | protein stability index | 2.04 |
| AGSRQALSYEVPPCNYDPEKWIQ [F9Y] | protein stability index | 2 |
| AGSRQDLSFEVPPCNYDPEKWIQ [A6D] | protein stability index | 2.91 |
| CGSRQALSFEVPPCNYDPEKWIQ [A1C] | protein stability index | 1.19 |
| AGSRQALRFEVPPCNYDPEKWIQ [S8R] | protein stability index | 1.89 |
| AGSRQALWFEVPPCNYDPEKWIQ [S8W] | protein stability index | 2.05 |
| AGSRQALSQEVPPCNYDPEKWIQ [F9Q] | protein stability index | 3.05 |
| AGSRQALSFEVPCCNYDPEKWIQ [P13C] | protein stability index | 3 |
| AGSRQALSFEVPPCNYDPEKHIQ [W21H] | protein stability index | 2.32 |
